# kon values compiled below
# system.name: T1, hANG2-His (human, UniProt O15123 19-496, limits assumed)
# T1 construct: also called 人源ANG2; ANGPT2; not shown: C-terminal His tag
# T1 sequence (looked up): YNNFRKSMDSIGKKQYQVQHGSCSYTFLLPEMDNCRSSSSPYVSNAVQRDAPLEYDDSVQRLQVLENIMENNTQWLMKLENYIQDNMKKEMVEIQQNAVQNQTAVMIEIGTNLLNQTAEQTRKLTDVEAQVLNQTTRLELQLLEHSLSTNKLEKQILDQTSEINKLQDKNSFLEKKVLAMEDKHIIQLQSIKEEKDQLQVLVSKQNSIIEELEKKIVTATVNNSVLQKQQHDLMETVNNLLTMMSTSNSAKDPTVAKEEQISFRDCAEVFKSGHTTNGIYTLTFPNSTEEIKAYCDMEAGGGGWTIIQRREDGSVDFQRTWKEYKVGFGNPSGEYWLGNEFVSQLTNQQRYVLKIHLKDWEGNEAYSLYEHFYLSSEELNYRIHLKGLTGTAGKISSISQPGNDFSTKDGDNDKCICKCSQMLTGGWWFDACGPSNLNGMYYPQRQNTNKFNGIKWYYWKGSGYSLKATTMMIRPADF
# test.name: BLI (Gator), antibody captured on sensor, hANG2-His 100/50/25 nM
Use M⁻¹ s⁻¹ as the unit, but write only the number.

抗体78A74-7 (antibody, IgG1, V domains shown) VH: QVQLVESGGGLVKPGGSLRLSCAASGFTFSSYSMNWVRQAPGKGLEWVAVISYDGSNKYYADSVKGRFTISRDNSKNTLYLQMNSLRAEDTAVYYCAKATLDGYTAGYYYGMDVWGQGTTVTVSS VL: EIVLTQSPATLSLSPGERATLSCRASQSVSSYLAWYQQKPGQAPRLLIYDASNRATGIPARFSGSGSGTDFTLTISSLEPEDFAVYYCQLMSNWPPEWTFGQGTKVEIK : 189000

Next:
Recorded kon for 抗体78A74-35 (antibody, IgG1, V domains shown) VH: QVQLVESGGGLVKPGGSLRLSCAASGFTFSSYSMNWVRQAPGKGLEWVAVISYDGSNKYYADSVKGRFTISRDNSKNTLYLQMNSLRAEDTAVYYCAKATLDGYTAGYYYGMDVWGQGTTVTVSS VL: EIVLTQSPATLSLSPGERATLSCRASQSVSSYLAWYQQKPGQAPRLLIYDASNRATGIPARFSGSGSGTDFTLTISSLEPEDFAVYYCQQRSNWPPAMTFGQGTKVEIK , please?
187000
